Tested on: Zika virus NS2B-NS3 protease (linked construct)
assayDetails: Primary screen NINDS Rhodamine qHTS for Zika virus inhibitors (AID 1347160); note: % is set by controls: 0 for no effect and ±100 for the full control effect; nearly all actives have a fitted effect of over 55% in size
conditionNotes: purified NS2B-NS3 protease, Rhodamine110 substrate fluorescence; series mostly up to 33.1 µM
Inconclusive results are not listed. Calls of active or inactive are those of the source. Calls come from the whole dose curve; as a rule, active = well fitted inhibition curve with a large enough effect; inconclusive = small, poorly fitted or top-dose-only effect; inactive = no such curve, though single readings can be large or run the other way.
The reply should name one outcome from T for active, F for inactive

compound	cat
O=C(/C=C/c1ccc(O)cc1)O[C@H]1[C@H](OC2CCCCC2O)O[C@H](CO)[C@@H](O)[C@@H]1O (stereo not given in full)	F
CC1(C)OC(=O)C=C[C@@]2(C)C1CC(=O)[C@]1(C)C2CC[C@@]2(C)[C@H](c3ccoc3)OC(=O)[C@H]3O[C@]321 (stereo not given in full)	F

Turning now to a further compound:
## Input // param item: "N#Cc1cc(-c2n[nH]c(-c3ccncc3)n2)ccn1" ; yields the recorded call
## Output F

* * *

System: C33A
assayDetails: Primary qHTS to identify gynecologic anti-cancer compounds using libraries of approved drugs and bioactive compounds (AID 1345084); note: % is set by controls: 0 for no effect and ±100 for the full control effect; nearly all actives have a fitted effect of over 55% in size
conditionNotes: Gynecologic cancer cell panel viability, ATPlite luminescence, 48 h; series mostly up to 57.5 µM
Records with an inconclusive call do not appear. Calls of active or inactive are those of the source. Calls come from the whole dose curve; as a rule, active = well fitted cell-killing curve with a large enough effect; inconclusive = small, poorly fitted or top-dose-only effect, or effect the other way; inactive = flat fitted curve, though single readings scatter.
experimentalReadout: activity change, negative = cytotoxicity

compound	activity change, negative = cytotoxicity
C[C@@H]1O[C@@H](O[C@H]2[C@H](O[C@H]3[C@H](O[C@H]4CC[C@@]5(C)C(CC[C@]6(C)C5CC=C5[C@@H]7CC(C)(C)C[C@@H](O)[C@]7(C)CC[C@]56C)[C@@]4(C)CO)O[C@H](C(=O)O)[C@@H](O)[C@@H]3O)O[C@H](CO)[C@H](O)[C@@H]2O)[C@H](O)[C@H](O)[C@H]1O (stereo partly drawn)	-1.56% [at 11.6 µM] (inactive)

Next compound, please.
## Input Need activity change, negative = cytotoxicity, item C[C@@H]1O[C@@H](O[C@H]2[C@H](OC(=O)[C@]34CCC(C)(C)C[C@H]3C3=CCC5[C@@]6(C)CC[C@H](O[C@@H]7O[C@H](CO[C@@H]8OC[C@H](O)[C@H](O)[C@H]8O[C@@H]8OC[C@@H](O)[C@H](O)[C@H]8O)[C@@H](O)[C@H](O)[C@H]7O)C(C)(C)C6CC[C@@]5(C)[C@]3(C)C[C@H]4O)O[C@H](CO)[C@@H](O)[C@@H]2O)[C@H](O[C@@H]2O[C@H](CO)[C@@H](O)[C@H](O)[C@H]2O)[C@H](O)[C@H]1O[C@@H]1OC[C@@H](O)[C@H](O[C@@H]2OC[C@@H](O)[C@H](O)[C@H]2O)[C@H]1O (stereo partly drawn)
## Output 6.83% [at 6.55 µM] (inactive)

* * *

Test system: HACAT
assayDetails: qHTS assay to identify novel small-molecules to repurpose for Merkel cell carcinoma treatment (AID 1296009); note: nearly all actives have a fitted effect of over 60% in size
conditionNotes: MCC and control cell lines, CellTiter-Glo viability, 72 h; at 44.8 µM (top of the series) unless noted
Inconclusive results are not listed. Calls of active or inactive are those of the source. Calls follow the shape of the dose curve; as a rule, active = well fitted inhibition curve with a large enough effect; inconclusive = small, poorly fitted or top-dose-only effect; inactive = flat fitted curve, though single readings scatter.
experimentalReadout: outcome

molecule	outcome
O=C(/C=C/c1ccc(O)c(O)c1)O[C@H]1[C@@H]2C=CO[C@@H](O[C@@H]3O[C@H](CO)[C@@H](O)[C@H](O)[C@H]3O)[C@@H]2[C@@]2(CO)O[C@@H]12	inactive [at 17.4 µM]
O=C(NC/C=C/CN1CCN(c2cccc(Cl)c2Cl)CC1)c1ccc(-c2ccccn2)cc1	inactive
Fc1ccc(-c2c3cccc(C(F)(F)F)c3nn2Cc2ccc(F)cc2Cl)cc1	inactive
C[C@]1(OC(=O)/C=C/c2ccccc2)C[C@@H](O)[C@]2(O)C=CO[C@@H](O[C@@H]3O[C@H](CO)[C@@H](O)[C@H](O)[C@H]3O)[C@@H]21	inactive [at 17.4 µM]
CC(C)(Oc1ccc(-c2nc3cc(Cl)ccc3s2)cc1)C(=O)O	inactive

Next molecule, please.
## Input Need outcome, item C=C(C)[C@@H]1CC[C@]2(C(=O)O)CC[C@]3(C)[C@H](CCC4[C@@]5(C)CCC(=O)C(C)(C)C5C(O)C[C@]43C)C12 (some centres not stated)
## Output inactive [at 17.4 µM]

* * *

System: NIH3T3
assayDetails: qHTS assay to identify novel small-molecules to repurpose for Merkel cell carcinoma treatment (AID 1296009); note: nearly all actives have a fitted effect of over 60% in size
conditionNotes: MCC and control cell lines, CellTiter-Glo viability, 72 h; at 44.8 µM (top of the series) unless noted
Records with an inconclusive call do not appear. Active and inactive are the calls of the source. Calls follow the shape of the dose curve; as a rule, active = well fitted inhibition curve with a large enough effect; inconclusive = small, poorly fitted or top-dose-only effect; inactive = flat fitted curve, though single readings scatter.

molecule	outcome
Cc1ccc(Cl)cc1N(CC(=O)Nc1c(F)cccc1F)S(C)(=O)=O	inactive
CSCC1OC(n2cnc3c(=O)[nH]cnc32)C(O)C1O (centres undefined)	inactive

* * *

System: Zika virus NS2B-NS3 protease (unlinked complex)
assayDetails: Primary screen GU Rhodamine qHTS for Zika virus inhibitors: Unlinked NS2B-NS3 protease assay (AID 1347159); note: % is set by controls: 0 for no effect and ±100 for the full control effect; nearly all actives have a fitted effect of over 60% in size
conditionNotes: Recombinant ZIKV NS2B-NS3 protease, Rhodamine110 substrate fluorescence; series mostly up to 107 µM
Excerpt: Avindra Nath, Ph.D., National Institute of Neurological Disorders and Stroke (NINDS), Bethesda, MD Radhakrishnan Padmanabhan, Ph.D., Georgetown University (GU), Washington D.C. Zika Virus causes congenital defects, including microcephaly and is associated with Guillain-Barre syndrome, eningoencephalitis and myelitis in infected adult. […]
Results filed as inconclusive are left out. Active and inactive are the calls of the source. The call rests on the fitted dose curve; in most records, active means well fitted inhibition curve with a large enough effect; inconclusive means small, poorly fitted or top-dose-only effect; inactive means no such curve, though single readings can be large or run the other way.
The reply should name one outcome from active, inactive

Would you please look over these solved cases?
compound	cat
CCC(C)C(=O)OC[C@H]1O[C@H](O[C@H]2O[C@H](CO)[C@@H](O)[C@H](O)[C@H]2O)[C@H](O)[C@@H](O)[C@@H]1O (stereo not given in full)	inactive
Nc1ncnc2c1C(=O)N(c1ccc(C3CCC(CC(=O)O)CC3)cc1)CCO2 (stereo not given)	inactive

## Input // param item: "Cc1ccccc1-c1cc(N2CCN(C)CC2)ncc1N(C)C(=O)C(C)(C)c1cc(C(F)(F)F)cc(C(F)(F)F)c1" ; yields the recorded call
## Output inactive

## Input // param item: "COC(=O)[C@]1(C)CCC[C@@]2(C)[C@@H]3CC[C@@H]4C[C@@]3(CC[C@@H]21)C[C@H]4C(=O)O" ; yields the recorded call
## Output inactive

## Input // param item: C[C@@]1(C(=O)O)CCC[C@@]2(C)C3=CC[C@H]4C[C@@]3(CC[C@H]12)CC4(O)CO (stereo not given in full) ; yields the recorded call
## Output inactive

## Input // param item: CC1C2=CC(=O)OC2(O)CC2C1C(O)CC1C(C)(CO)CCCC21C (stereo not given) ; yields the recorded call
## Output inactive

## Input // param item: N#CC1C(=O)N=C(c2cc(Cl)ccc2O)C=C1c1cc(OCc2ccccc2)cc(OCc2ccccc2)c1 (stereo not given) ; yields the recorded call
## Output inactive

## Input // param item: C=C1CC2C(C)(CCC(=O)O)C(C(C)(C)O)CCC2(C)C2(C(=O)OC)C(=O)C(C)(O)C(=O)C12C (stereo not given) ; yields the recorded call
## Output inactive

## Input // param item: "N[C@@H](CCNCc1ccc(Cl)cc1)C(=O)N1CCCCC1" ; yields the recorded call
## Output inactive

## Input // param item: C/C=C(\C)C(=O)OCC1OC(OCC2OC(OC3(CO)OC(CO)C(O)C3O)C(O)C(O)C2O)C(O)C(O)C1O (stereo not given) ; yields the recorded call
## Output inactive

## Input // param item: "C/C=C/C=C/[C@@H]1O[C@](O)([C@H](CC)C(=O)NC/C=C/C=C(\C)[C@@H](OC)[C@@H](C)[C@@H]2O[C@H](/C=C/C=C/C=C(\C)C(=O)c3c(O)ccn(C)c3=O)[C@H](O)[C@@H]2O)[C@H](O)[C@H](O)C1(C)C" ; yields the recorded call
## Output inactive

## Input // param item: "COc1cc(CO)ccc1O[C@@H]1O[C@H](CO)[C@@H](O)[C@H](O)[C@H]1O" ; yields the recorded call
## Output inactive

## Input // param item: C/C(CO)=C1/CCC23COC(C2)C(O)(C(=O)O)CCC13 (stereo not given) ; yields the recorded call
## Output inactive

* * *

targetEntity: Phospholipid hydroperoxide glutathione peroxidase GPX4 (Homo sapiens) (UniProt P36969)
Sequence (P36969 whole entry, looked up): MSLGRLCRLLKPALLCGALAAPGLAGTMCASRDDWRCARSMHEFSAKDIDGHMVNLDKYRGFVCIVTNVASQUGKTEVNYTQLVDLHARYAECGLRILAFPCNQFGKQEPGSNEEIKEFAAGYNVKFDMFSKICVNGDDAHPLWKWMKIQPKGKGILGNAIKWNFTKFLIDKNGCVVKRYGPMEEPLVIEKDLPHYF
assayDetails: Primary qHTS Assay for Inhibitors of Recombinant Selenoprotein Glutathione Peroxidase 4 (GPX4) (AID 1845192); note: % is set by controls: 0 for no effect and ±100 for the full control effect; nearly all actives have a fitted effect of over 65% in size
conditionNotes: recombinant GPX4, GR-coupled NADPH fluorescence, 15 min; series mostly up to 27.8 µM
Records with an inconclusive call do not appear. The source made the active and inactive calls. Calls follow the shape of the dose curve; as a rule, active = well fitted inhibition curve with a large enough effect; inconclusive = small, poorly fitted or top-dose-only effect; inactive = flat fitted curve, though single readings scatter.
experimentalReadout: activity change, negative = inhibition

molecule	assayResult
CC1(C)CC[C@]2(C(=O)O[C@@H]3O[C@H](CO)[C@@H](O)[C@H](O)[C@H]3O)CC[C@]3(C)C(=CCC4[C@@]5(C)CC[C@H](O[C@H]6O[C@H](CO)[C@@H](O)[C@H](O[C@@H]7O[C@H](CO)[C@@H](O)[C@H](O)[C@H]7O)[C@H]6O)C(C)(C)C5CC[C@]43C)[C@@H]2C1 (stereo partly drawn)	inactive
CC1(C)CC[C@]2(C(=O)O[C@@H]3O[C@H](CO)[C@@H](O)[C@H](O)[C@H]3O)CC[C@]3(C)C(=CCC4[C@@]5(C)C[C@@H](O)[C@H](O)[C@@](C)(CO)C5[C@H](O)C[C@]43C)C2[C@@H]1O (stereo partly drawn)	inactive
CC(=O)OC1CC2C(C)(C)C(=O)C=CC2(C)C2CC(=O)C3=C(CCC3C3=CC(O)OC3=O)C12C (stereo not drawn)	inactive

All figures here come from PubChem BioAssay (NCATS).
